experiment: Pharmacokinetics of D10.1 after PO, SQ and IV dosing in mice; settings: female, Balb/C, mouse, plasma, po, 12.2 mg/kg
quantity: level at time molar at 0.5 h (nM)
Give just the numeric value; nM need not be written.

// field: level at time molar at 0.5 h; key: CC[C@H](C)[C@@H]1NC(=O)[C@@H](CC(C)C)NC(=O)[C@H](CC(C)C)N(C)C(=O)[C@H](Cc2ccccc2)NC(=O)CN(C)C(=O)[C@@H]2CCCN2C(=O)[C@H](C(C)C)NC(=O)[C@H](Cc2ccccc2)N(C)C(=O)[C@H]2CCCN2C(=O)[C@H](CC(C)C)NC1=O [Design D10.1, lILp*FVP*GF*L] ; value = 2920
